B1: RPAIN (parent)
chain: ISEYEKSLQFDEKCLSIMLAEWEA

- Variants of: B1
- Measurement description: protein stability index of a GFP-peptide fusion (GPS, HEK-293T) (PSI 1-6); higher = more stable;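 further: lentivirally expressed fusions sorted by FACS into six bins by GFP to DsRed ratio, PSI derived from sequencing read proportions per bin multiplied by bin number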
- Conditions: c terminus: a fixed tail appended
Decide by protein stability index: equal to or exceeding 3 means Met, less means Not met.

* C14N | Not met
* K13G | Not met
* I1Y | Not met
* L19H | Met
* E21G | Not met
* D11N | Not met
* W22N | Met
* E23C | Not met

Req: Does E21W have a reported protein stability index of at least 3?
Resp: Not met

Req: Hi team, for L15R , is the recorded protein stability index at or above 3?
Resp: Met
